target: Sodium-dependent serotonin transporter (Homo sapiens, UniProt P31645); assay: Inhibition of human SERT expressed in CHO cell membranes assessed as reduction in [3H]serotonin uptake preincubated for 10 mins followed by [3H]serotonin addition measured after 20 mins by liquid scintillation counting method; format: cell-based
Sequence (P31645 whole entry): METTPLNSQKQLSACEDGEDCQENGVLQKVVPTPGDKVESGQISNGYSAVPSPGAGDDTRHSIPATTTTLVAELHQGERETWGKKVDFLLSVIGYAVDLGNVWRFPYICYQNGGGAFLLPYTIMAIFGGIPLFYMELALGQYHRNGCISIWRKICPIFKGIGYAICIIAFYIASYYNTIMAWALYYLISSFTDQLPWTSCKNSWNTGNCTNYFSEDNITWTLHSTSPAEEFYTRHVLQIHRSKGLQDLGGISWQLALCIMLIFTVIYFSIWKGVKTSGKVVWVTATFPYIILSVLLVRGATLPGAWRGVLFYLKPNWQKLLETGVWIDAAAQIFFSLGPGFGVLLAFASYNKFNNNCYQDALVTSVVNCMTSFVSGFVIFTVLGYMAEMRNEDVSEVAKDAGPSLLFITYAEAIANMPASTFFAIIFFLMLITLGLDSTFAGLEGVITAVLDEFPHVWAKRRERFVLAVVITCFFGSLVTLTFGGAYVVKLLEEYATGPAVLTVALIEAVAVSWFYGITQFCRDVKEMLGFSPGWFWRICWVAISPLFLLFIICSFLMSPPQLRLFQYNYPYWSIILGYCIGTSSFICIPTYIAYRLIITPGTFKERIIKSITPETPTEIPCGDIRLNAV
pKi: −log10 of the molar value.
outcome.measure: pKi

smiles.representation | numeric.value
COc1ccc(Br)c(CC2CCN(CCc3ccc(Cl)cc3)CC2)c1 | 7.34
COc1ccc(Br)c(CC2CCN(CCc3ccccc3)CC2)c1 | 7.18
COc1cccc(CCN2CCC(Cc3cc(OC)ccc3Br)CC2)c1 | 7.43
COc1ccc(Br)c(CC2CCN(CCc3cccc(Cl)c3)CC2)c1 | 7.37
COc1ccc(Br)c(CC2CCN(CCc3cc(OC)c(OC)cc3Cl)CC2)c1 | 7.55
COc1ccc(Br)c(CC2CCN(CCc3ccc4c(c3)OCCO4)CC2)c1 | 7.85
CCOc1ccc(Br)c(CC2CCN(CCc3cc4c(cc3Cl)OCCO4)CC2)c1 | 7.73
COc1ccc(CCN2CCC(Cc3cc(OC)ccc3Br)CC2)c(Cl)c1 | 7.52
COCCOc1ccc(Br)c(CC2CCN(CCc3cc4c(cc3Cl)OCCO4)CC2)c1.Cl | 7.49
COc1ccc(CCN2CCC(Cc3cc(OC)ccc3Br)CC2)cc1 | 7.43
